# assay target: 5HT6 human recombinant receptor (Homo sapiens, UniProt P50406)
# Construct: purchased Receptor Biology; host or cells: HEK-293 cell membranes
# Sequence (P50406 whole entry): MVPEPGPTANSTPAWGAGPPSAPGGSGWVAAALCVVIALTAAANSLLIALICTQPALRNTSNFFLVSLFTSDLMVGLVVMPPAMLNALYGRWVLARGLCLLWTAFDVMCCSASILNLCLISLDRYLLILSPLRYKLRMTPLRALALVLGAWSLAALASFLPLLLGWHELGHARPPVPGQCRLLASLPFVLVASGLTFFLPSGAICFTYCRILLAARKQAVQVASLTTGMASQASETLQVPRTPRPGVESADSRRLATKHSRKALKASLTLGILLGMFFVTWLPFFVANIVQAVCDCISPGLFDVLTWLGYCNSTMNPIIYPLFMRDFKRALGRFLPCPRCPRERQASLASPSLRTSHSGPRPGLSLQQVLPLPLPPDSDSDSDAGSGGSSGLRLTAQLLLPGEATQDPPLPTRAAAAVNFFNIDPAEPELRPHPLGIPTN
# experimental details: Binding test to 5-HT6 receptors ([3H]-LSD displacement, HEK-293 cell membranes)
# measurement conditions: compound concentration 10^−6 M; radioligand [3H]-LSD 2.7 nM; 60 min, 37° C.
measure: inhibition at 1 µM (%)

Return the recorded inhibition at 1 µM value; entry: "CC1=C(CCN(C)C)c2cc(NS(=O)(=O)c3c(Cl)nc4sccn34)ccc2C1"
97

Respond only with inhibition at 1 µM recorded for "O=S(=O)(Nc1ccc2c(c1)C(CCN1CCCC1)=CC2)c1ccc2ccccc2c1"
92

Identify measured inhibition at 1 µM corresponding to "CC1=C(CCN2CCCC2)c2cc(NS(=O)(=O)c3ccc4ccccc4c3)ccc2C1"
92

Determine its reported inhibition at 1 µM: "CC1=C(CCN(C)C)c2cc(NS(=O)(=O)c3ccc4ccccc4c3)ccc2C1"
100

Data credit: patent US8217041B2
